experiment: 3H-Thymidine Incorporation Assay (24 hr drug, wash, another 48 hr; 72 hr assay); type: cell-based; conditions: MCF7, read-out: IC50 (3H-TdR incorporation at 72 hr) MCF-7 24 h, MCF-7 human breast carcinoma; 24 hr exposure to drug, wash, another 48 hr
OBSERVATION_TYPE: IC50

>>> result("Nc1ccn([C@@H]2CO[C@H](COC(=O)c3ccccc3F)O2)c(=O)n1")
"0.027 µM"
>>> result("O=C(Nc1ccn([C@@H]2CO[C@H](COC(=O)OCc3ccc([N+](=O)[O-])cc3)O2)c(=O)n1)OCc1ccc([N+](=O)[O-])cc1")
"0.49 µM"
>>> result("CCOC(OCC)(OC[C@H]1OC[C@@H](n2ccc(N)nc2=O)O1)c1ccccc1")
"0.49 µM"
>>> result("CC(C)(C(=O)OC[C@H]1OC[C@@H](n2ccc(N)nc2=O)O1)c1ccccc1[N+](=O)[O-].Cl [Compound 224, HYDROCHLORIDE SALT]")
"6.9 µM"

Numbers sourced from patent US20050256034A1.
